The measurements presented in this section are drawn from BigSolDB 2.1.

EXPERIMENTAL_PARAMETERS: in water, 298.15 K

{"SMI": "COc1c(NS(=O)(=O)c2ccc(C)cc2)cc(-c2ccc3ncnc(N4CCOCC4)c3c2)cc1C(N)=O", "solubility (mole fraction)": "1.62e-06"}
{"SMI": "COc1c(NS(=O)(=O)c2ccc(F)cc2)cc(-c2ccc3ncnc(N4CCOCC4)c3c2)cc1C(N)=O", "solubility (mole fraction)": "9.14e-07"}
{"SMI": "COc1c(NS(=O)(=O)c2ccc(F)cc2)cc(-c2ccc3nccc(N4CCOCC4)c3c2)cc1C(N)=O", "solubility (mole fraction)": "7.36e-07"}

---

EXPERIMENTAL_PARAMETERS: in chloroform, 313.15 K

{"SMI": "COc1c(NS(=O)(=O)c2ccc(F)cc2)cc(-c2ccc3ncnc(N4CCOCC4)c3c2)cc1C(N)=O", "solubility (mole fraction)": 0.000258}
{"SMI": "COc1c(NS(=O)(=O)c2ccc(F)cc2)cc(-c2ccc3nccc(N4CCOCC4)c3c2)cc1C(N)=O", "solubility (mole fraction)": "9.58e-05"}
{"SMI": "COc1c(NS(=O)(=O)c2ccc(C)cc2)cc(-c2ccc3ncnc(N4CCOCC4)c3c2)cc1C(N)=O", "solubility (mole fraction)": 0.00547}
